Please go through the items and note down their LD50.
- Assay summary: Toxicity in ip dosed BDF1 mouse
- Format: organism-based
- Conditions: in vivo

Take a look at these entries with their results.
{"Molecule": "O=C(CF)COC(=O)c1ccc([N+](=O)[O-])cc1", "LD50": "370 µmol/kg"}
{"Molecule": "O=C(CCl)COP(=O)(O)O", "LD50": "360 µmol/kg"}
{"Molecule": "O=C(CBr)COC(=O)c1ccccc1", "LD50": "120 µmol/kg"}
{"Molecule": "CC(=O)OCC(CF)OC(C)=O (centres undefined)", "LD50": "220 µmol/kg"}
{"Molecule": "COC(CF)(COC(=O)c1ccccc1)OC", "LD50": "230 µmol/kg"}

Below are 6 molecules. Give each one its LD50.
1. O=C(CCl)COC(=O)c1ccccc1
2. OCC(O)CF (centres undefined)
3. C1CCC(NC2CCCCC2)CC1.O=P(O)(O)OCC(O)CF
4. O=C(OCC(O)CF)c1ccccc1 (centres undefined)
5. C1CCC(NC2CCCCC2)CC1.O=P(O)(O)OCC(O)CCl
6. OCC(O)CBr (centres undefined)

330 µmol/kg
210 µmol/kg
300 µmol/kg
230 µmol/kg
2100 µmol/kg
1370 µmol/kg

* * *

- Assay summary: Toxicity in mouse L1210 cells allografted immunosuppressed BDF1 mouse assessed as mortality dosed intraperitoneally <LD50 after 60 days
- Assay type: organism-based
- Conditions: in vivo, ip, read-out: Activity
Observable: mortality at 1440 h (%)
Give bare numbers, in %.

Quote mortality at 1440 h reported for O=C(CCl)COC(=O)c1ccccc1 please.
85

* * *

- Assay summary: Toxicity in ip dosed BDF1 mouse
- Format: organism-based
- Conditions: in vivo
Observable: LD50 (µmol/kg)
Answers are plain numbers, in µmol/kg.

{"Compound": "CC(=O)OCC(CCl)OC(C)=O (stereo not drawn)", "Measurement units": "µmol/kg", "Quantitative readout": 1740}
{"Compound": "O=C(CF)COC(=O)c1ccccc1", "Measurement units": "µmol/kg", "Quantitative readout": 180}
{"Compound": "CC(=O)COC(=O)c1ccccc1", "Measurement units": "µmol/kg", "Quantitative readout": 7860}
{"Compound": "O=C(OCC(O)CCl)c1ccccc1 (stereo not drawn)", "Measurement units": "µmol/kg", "Quantitative readout": 2100}
{"Compound": "O=C(CO)CF", "Measurement units": "µmol/kg", "Quantitative readout": 220}

Below are 5 compounds. Give each one its LD50.
1. OCC(O)CCl (stereo not drawn)
2. O=C(CCl)COC(=O)c1ccc([N+](=O)[O-])cc1
3. O=C(OCC(O)CBr)c1ccccc1 (stereo not drawn)
4. O=C(CF)COP(=O)(O)O
5. COC(CO)(CF)OC

[1800, 660, 1370, 150, 200]

* * *

- Assay summary: Toxicity in ip dosed BDF1 mouse
- Format: organism-based
- Conditions: in vivo
Observable: LD50

Take a look at these entries with their results.
{"Compound structure string": "CC(=O)OCC(=O)CCl", "LD50": "470 µmol/kg"}
{"Compound structure string": "O=C(CCl)COC(=O)c1cc([N+](=O)[O-])cc([N+](=O)[O-])c1", "LD50": "880 µmol/kg"}

Proceeding to the next molecule to report its LD50.
Quote LD50 reported for CC(=O)OCC(=O)CF please.
220 µmol/kg
